Target: NDM-1 (Klebsiella pneumoniae)
Sequence (C7C422 29-270, looked up, species assumed): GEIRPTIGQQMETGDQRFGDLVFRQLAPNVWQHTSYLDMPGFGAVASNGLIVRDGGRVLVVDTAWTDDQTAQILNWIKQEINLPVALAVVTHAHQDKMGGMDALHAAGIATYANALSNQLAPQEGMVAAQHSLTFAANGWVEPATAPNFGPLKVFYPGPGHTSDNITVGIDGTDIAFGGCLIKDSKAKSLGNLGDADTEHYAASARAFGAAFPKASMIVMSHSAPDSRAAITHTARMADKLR
Assay: biochemical
Conditions: cleavage of imipenem (100 uM) by NDM-1; read-out: Ki, Imipenem
pKi: −log10 of the molar value.
reportedProperty: pKi

**Query** Looking for the measured pKi of COCCOc1ccc2c(c1C(=O)O)OB(O)[C@@H](Sc1nncs1)C2 [Compound 89] , can you help?
**Result** 7.00 to 8.00

**Query** Name the recorded pKi for NCCSc1nnc(S[C@H]2Cc3cccc(C(=O)O)c3OB2O)s1 [Compound 116] .
**Result** > 8.00

**Query** Please look up its pKi: O=C(O)c1cccc2c1OB(O)[C@@H](Sc1nnc(NC3CNC3)s1)C2 [Compound 99]
**Result** > 8.00

**Query** Looking for the measured pKi of Cn1nnnc1S[C@H]1Cc2cccc(C(=O)O)c2OB1O [Compound 5] , can you help?
**Result** 7.00 to 8.00

**Query** Fill in: pKi of NC(=O)CS[C@H]1Cc2cccc(C(=O)O)c2OB1O [Compound 3] is ___
**Result** < 7.00

**Query** Request the reported pKi associated with NCCOc1ccc2c(c1C(=O)O)OB(O)[C@@H](Sc1nnc(N)s1)C2 [Compound 79]
**Result** < 7.00

**Query** Any idea what its pKi is? The molecule is O=C(O)c1c(F)ccc2c1OB(O)[C@@H](Sc1cnns1)C2 [Compound 48]
**Result** < 7.00

**Query** What does the record list as pKi for CSc1ccc2c(c1C(=O)O)OB(O)[C@@H](Sc1nnc(N)s1)C2 [Compound 30] ?
**Result** 7.00 to 8.00

Now, please, on to the next molecule.
**Query** What value of pKi has been recorded for this entry: Nc1nnc(S[C@H]2Cc3cccc(C(=O)O)c3OB2O)s1 [Compound 4]
**Result** > 8.00

* * *

Experiment: Serum stability of prodrugs: hydrolysis by human serum
Type: in vitro ADME
Conditions: prodrug, 1 hr
Protocol: Prodrug strategy is one of the ways to achieve or increase oral bioavailability for therapeutic drugs. Compound 62 was used as a template for various ester prodrugs. After a prodrug molecule is absorbed into systemic circulation, it should be hydrolyzed in the blood in order to release the active form. Hydrolysis of several prodrugs by rat and human serum were evaluated. For all stability experiments the test compounds were treated with rat or human serum in Eppendorf tubes. […]
The reader will find reported Conc. at t = 1 hr values listed item by item below.

**Query** Find the recorded Conc. at t = 1 hr belonging to COc1ccc2c(c1C(=O)OCOC(=O)OC(C)C)OB(O)[C@@H](Sc1nncs1)C2 [Compound 122] and report it.
**Result** 34.1 µM

**Query** State the recorded Conc. at t = 1 hr for this entry: COc1ccc2c(c1C(=O)OCOC(C)=O)OB(O)[C@@H](Sc1nncs1)C2 [Compound 123]
**Result** 43.4 µM

**Query** Item COc1ccc2c(c1C(=O)OCOC(=O)C(C)C)OB(O)[C@@H](Sc1nncs1)C2 [Compound 121] has what recorded Conc. at t = 1 hr?
**Result** 38.6 µM

***
**Query** Query: Conc. at t = 1 hr; subject: CCOC(=O)OCOC(=O)c1c(OC)ccc2c1OB(O)[C@@H](Sc1nncs1)C2 [Compound 124]
**Result** 38.3 µM

**Query** Entry COc1ccc2c(c1C(=O)OCOC(=O)C(C)(C)C)OB(O)[C@@H](Sc1nncs1)C2 [Compound 125] : reported Conc. at t = 1 hr = ?
**Result** 27.4 µM
